Molecular target: VEGFR2 (Homo sapiens, UniProt P35968)
Sequence (P35968 20-1356): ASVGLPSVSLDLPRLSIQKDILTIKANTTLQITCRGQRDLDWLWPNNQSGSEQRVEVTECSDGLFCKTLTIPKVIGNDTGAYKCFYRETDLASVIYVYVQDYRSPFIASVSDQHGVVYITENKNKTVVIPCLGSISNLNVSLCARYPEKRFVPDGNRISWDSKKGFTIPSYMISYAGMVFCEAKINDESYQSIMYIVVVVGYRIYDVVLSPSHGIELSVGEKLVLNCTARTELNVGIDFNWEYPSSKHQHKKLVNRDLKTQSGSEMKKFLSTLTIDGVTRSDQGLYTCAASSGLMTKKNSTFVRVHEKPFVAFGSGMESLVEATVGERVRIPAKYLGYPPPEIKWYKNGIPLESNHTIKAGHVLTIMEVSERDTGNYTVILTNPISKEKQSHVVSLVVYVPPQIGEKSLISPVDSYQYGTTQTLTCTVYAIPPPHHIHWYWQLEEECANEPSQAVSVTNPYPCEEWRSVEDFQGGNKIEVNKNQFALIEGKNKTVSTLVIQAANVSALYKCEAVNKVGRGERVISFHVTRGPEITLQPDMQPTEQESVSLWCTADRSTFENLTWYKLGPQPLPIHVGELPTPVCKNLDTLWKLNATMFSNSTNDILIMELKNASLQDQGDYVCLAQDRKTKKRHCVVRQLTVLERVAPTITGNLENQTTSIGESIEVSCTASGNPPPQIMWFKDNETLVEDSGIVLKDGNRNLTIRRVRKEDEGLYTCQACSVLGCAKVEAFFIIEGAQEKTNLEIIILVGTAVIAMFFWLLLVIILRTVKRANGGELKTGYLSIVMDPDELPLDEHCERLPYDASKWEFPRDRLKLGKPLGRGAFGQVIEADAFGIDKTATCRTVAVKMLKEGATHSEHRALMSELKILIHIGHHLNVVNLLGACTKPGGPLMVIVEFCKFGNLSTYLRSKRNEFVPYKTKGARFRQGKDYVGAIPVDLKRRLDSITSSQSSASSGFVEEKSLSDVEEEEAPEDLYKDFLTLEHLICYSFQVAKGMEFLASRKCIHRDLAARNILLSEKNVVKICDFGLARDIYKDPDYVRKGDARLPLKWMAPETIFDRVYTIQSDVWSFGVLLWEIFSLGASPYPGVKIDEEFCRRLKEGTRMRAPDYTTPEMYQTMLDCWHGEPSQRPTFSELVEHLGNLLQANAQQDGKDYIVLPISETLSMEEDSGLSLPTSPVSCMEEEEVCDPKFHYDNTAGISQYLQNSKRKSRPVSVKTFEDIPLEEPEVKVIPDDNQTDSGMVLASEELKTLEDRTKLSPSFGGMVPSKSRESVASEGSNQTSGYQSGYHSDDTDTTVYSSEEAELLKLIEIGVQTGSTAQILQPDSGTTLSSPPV
Assay: Inhibition of VEGF-induced VEGFR2 autophosphorylation (pVEGFR2) in HUVEC cells, ELISA
Format: cell-based
Set-up: endogenous in cells; host or cells: HUVEC
Settings: 50 ng/mL human VEGF, compound 1 h
parameter measured: IC50 (nM)

smiles record: CN1CCN(CCNC(=O)Nc2snc(OCc3ccc(F)c(C(=O)NC4CC4)c3)c2C(N)=O)CC1
IC50 [nM]: 52.2
//
smiles record: NC(=O)c1c(OCc2c(F)cc3c(c2F)OCC3)nsc1NC(=O)NCCCCN1CC[C@H](O)C1
IC50 [nM]: 16
//
smiles record: CN1CCN(CCCNC(=O)Nc2snc(OCc3cc4c(cc3F)CCO4)c2C(N)=O)CC1
IC50 [nM]: 103
//
smiles record: CN1CCN(CCCNC(=O)Nc2snc(OCc3cc(C(=O)NC4CC4)ccc3F)c2C(N)=O)CC1
IC50 [nM]: 48.2
//
smiles record: COc1cc(OC)c(F)c(COc2nsc(NC(=O)NCCC3CCN(CCF)CC3)c2C(N)=O)c1F
IC50 [nM]: 27
//
smiles record: NC(=O)c1c(OCc2cc(C(=O)NC3CC3)ccc2F)nsc1NC(=O)NCCCN1CCCC1
IC50 [nM]: 132
//
smiles record: COc1ccc(F)c(COc2nsc(NC(=O)NCCCCN3CC[C@H](O)C3)c2C(N)=O)c1F
IC50 [nM]: 34.5
//
smiles record: NC(=O)c1c(OCc2cc(C(=O)NC3CC3)ccc2F)nsc1NC(=O)NCCCN1CC[C@H](F)C1
IC50 [nM]: 61

a: NC(=O)c1c(OCc2cc(C(=O)NC3CC3)ccc2F)nsc1NC(=O)NCCCCN1CCCC1
b: NC(=O)c1c(OCc2c(F)cc3c(c2F)OCC3)nsc1NC(=O)NCCCCN1CCCC1
Prompt: For the pair a and b , which entry has the numerically smaller recorded IC50? Mark your selection by writing its label.
Response: a

a: NC(=O)c1c(OCc2ccc3c(c2)OCC3)nsc1NC(=O)NCCCCN1CCCC1
b: CN1CCN(CCCNC(=O)Nc2snc(OCc3ccc(F)c(C(=O)NC4CC4)c3)c2C(N)=O)CC1
Prompt: When their IC50 values are compared, which is larger, a or b ? Mark your selection by writing its label.
Response: b

P: COc1cc(OC)c(F)c(COc2nsc(NC(=O)NCCC3CCN(C)CC3)c2C(N)=O)c1F
Q: NC(=O)c1c(OCc2c(F)ccc(C(=O)NC3CC3)c2F)nsc1NC(=O)NCCCCN1CCCC1
R: NC(=O)c1c(OCc2ccc(F)c(C(=O)NC3CC3)c2)nsc1NC(=O)NCCCCN1CCCC1
Prompt: Order these by IC50, descending, and give the full ranking. Lab note: record answer as labels in requested order.
Response: R, Q, P

Cited source: patent US20260217698A1
